# reported IC50; entries follow
# System: SK-MEL-3 tumor cells
# ASSAY SUMMARY: Cell growth inhibition assay (CellTiter-Glo), SK-MEL-3
# Format: cell-based, Human
# APPLIED CONDITIONS: Homo sapiens, SK-MEL3
Where a name gives a salt, the structure may show the parent alone.

O=S(=O)(Nc1cccc(-c2nc(N3CCOCC3)sc2-c2ccnc(Nc3ccc(N4CCOCC4)nc3)n2)c1Cl)c1c(F)cccc1F [Example 146]: < 100 nM

Quick one: IC50 for CC(C)(C)c1nc(-c2ccc(F)c(NS(=O)(=O)c3c(F)cccc3F)c2)c(-c2ccnc(Nc3ccc(N4CCOCC4)nc3)n2)s1 [Example 28, hydrochloride] ?
< 100 nM

Data request, read-out IC50, for CC(C)c1nc(-c2cccc(NS(=O)(=O)c3c(F)cccc3F)c2)c(-c2ccnc(Nc3ccc(N4CCN(C(C)C)CC4)cc3O)n2)s1 [Example 78]
< 100 nM

* * *

Reported pIC50 by item:
# Tested on: A375P F11s tumor cells
# ASSAY SUMMARY: Cell growth inhibition assay (CellTiter-Glo), A375P F11s
# Type: cell-based, Human
# APPLIED CONDITIONS: Homo sapiens
pIC50: −log10 of the molar value. Counter-ions that a name gives are not always drawn.

Field: example entries. Status: answers known.
Cc1cc(Nc2nccc(-c3sc(C(C)(C)C)nc3-c3cccc(NS(=O)(=O)c4c(F)cccc4F)c3F)n2)ccn1 [Example 159]: > 7.00
COc1cc(N2CCN(CCF)CC2)ccc1Nc1nccc(-c2sc(C(C)C)nc2-c2cccc(NS(=O)(=O)c3c(F)cccc3F)c2)n1 [Example 79]: 6.00 to 7.00

Return reported pIC50; argument: CC(C)c1nc(-c2cccc(NS(=O)(=O)c3c(F)cccc3F)c2)c(-c2ccnc(Nc3ccc(N4CCCN(CCS(C)(=O)=O)CC4)nc3)n2)s1 [Example 88]
> 7.00

// returns reported pIC50 for input COc1cc(C2CCN(CCS(C)(=O)=O)CC2)c(C)cc1Nc1nccc(-c2sc(C(C)C)nc2-c2cccc(NS(=O)(=O)c3c(F)cccc3F)c2)n1 [Example 115]
6.00 to 7.00

Which value of pIC50 has been reported for CC(C)c1nc(-c2cccc(NS(=O)(=O)c3c(F)cccc3F)c2)c(-c2ccnc(Nc3ccc(N4CCN(CCS(C)(=O)=O)CC4)c(F)c3)n2)s1 [Example 16, hydrochloride] in the records?
> 7.00

Item Cc1cc(N2CCC(N3CCCCC3)CC2)ccc1Nc1nccc(-c2sc(C(C)C)nc2-c2cccc(NS(=O)(=O)c3c(F)cccc3F)c2)n1 [Example 91] has what recorded pIC50?
6.00 to 7.00

* * *

# Tested on: BT474 tumor cells
# ASSAY SUMMARY: Cell growth inhibition assay (CellTiter-Glo), BT474
# Type: cell-based, Human
# APPLIED CONDITIONS: Homo sapiens, BT-474, 72 h, 3 days incubation
READOUT LABEL: IC50

Below, each entry is followed by its recorded IC50 result.
CCOc1ccc(Nc2nccc(-c3sc(C(C)C)nc3-c3ccc(F)c(NS(=O)(=O)c4c(F)cccc4F)c3)n2)cc1N1CCN(CCF)CC1 [Example 98]: > 1000 nM
CC(=O)N1CCN(c2ccc(Nc3nccc(-c4sc(C(C)C)nc4-c4cccc(NS(=O)(=O)c5cccc(C(F)(F)F)c5)c4)n3)cn2)CC1 [Example 70]: > 1000 nM

What IC50 value was documented for this molecule, CS(=O)(=O)CCN1CCN(c2ccc(Nc3nccc(-c4oc(N5CCCC5)nc4-c4cccc(NS(=O)(=O)c5c(F)cccc5F)c4F)n3)cc2F)CC1 [Example 167] ?
> 1000 nM

* * *

# TARGET OR SYSTEM: B-Raf (Homo sapiens, UniProt P15056)
# Sequence (P15056 whole entry): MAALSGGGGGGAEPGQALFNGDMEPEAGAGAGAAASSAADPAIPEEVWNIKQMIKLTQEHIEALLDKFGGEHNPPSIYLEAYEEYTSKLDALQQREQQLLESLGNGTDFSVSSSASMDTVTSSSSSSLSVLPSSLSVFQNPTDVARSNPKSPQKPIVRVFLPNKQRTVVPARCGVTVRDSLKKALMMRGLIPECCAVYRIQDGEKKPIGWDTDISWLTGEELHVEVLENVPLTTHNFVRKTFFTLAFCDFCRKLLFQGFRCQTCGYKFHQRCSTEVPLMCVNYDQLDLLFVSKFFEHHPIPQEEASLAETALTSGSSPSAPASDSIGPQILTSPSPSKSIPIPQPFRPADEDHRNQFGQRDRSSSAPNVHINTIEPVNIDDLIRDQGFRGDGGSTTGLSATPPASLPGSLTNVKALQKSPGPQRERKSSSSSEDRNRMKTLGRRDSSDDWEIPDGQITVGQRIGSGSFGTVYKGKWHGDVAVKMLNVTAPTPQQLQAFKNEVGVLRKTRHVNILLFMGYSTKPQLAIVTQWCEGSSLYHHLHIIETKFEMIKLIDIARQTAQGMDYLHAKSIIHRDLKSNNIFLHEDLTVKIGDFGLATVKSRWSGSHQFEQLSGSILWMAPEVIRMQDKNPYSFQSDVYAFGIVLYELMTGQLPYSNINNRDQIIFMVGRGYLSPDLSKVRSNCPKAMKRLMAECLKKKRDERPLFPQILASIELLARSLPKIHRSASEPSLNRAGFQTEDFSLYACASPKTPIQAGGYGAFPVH
# ASSAY SUMMARY: B-Raf Accelerated MEK ATPase assay (BRAMA), Method A or B
# Type: biochemical
# APPLIED CONDITIONS: Method B: final MEK 150 nM, single end point read
pIC50: −log10 of the molar value.
READOUT LABEL: pIC50

Examples with their reported pIC50 follow.
COc1ccc(S(C)(=O)=O)cc1Nc1nccc(-c2sc(C(C)C)nc2-c2cccc(NS(=O)(=O)c3c(F)cccc3F)n2)n1 [Example 172]: > 7.00
COc1cc(N2CCN(CCS(C)(=O)=O)CC2)c(C)cc1Nc1nccc(-c2sc(C(C)C)nc2-c2cccc(NS(=O)(=O)c3ccco3)c2)n1 [Example 55]: > 7.00

The record that follows has no pIC50 shown yet.
Given the entry CC(C)c1nc(-c2cc(F)cc(NS(=O)(=O)c3c(F)cccc3F)c2)c(-c2ccnc(Nc3ccc(N4CCOCC4)c(F)c3)n2)s1 [Example 85] , report its measured pIC50.
> 7.00

* * *

Form field: IC50 (one value per entry).
# Tested on: SK-MEL-3 tumor cells
# ASSAY SUMMARY: Cell growth inhibition assay (CellTiter-Glo), SK-MEL-3
# Type: cell-based, Human
# APPLIED CONDITIONS: Homo sapiens, SK-MEL3

CN1CCC(c2nc(-c3ccc(F)c(NS(=O)(=O)c4c(F)cccc4F)c3)c(-c3ccnc(Nc4ccc(N5CCOCC5)nc4)n3)s2)CC1: < 100 nM
CC(C)c1nc(-c2ccc(F)c(NS(=O)(=O)c3c(F)cccc3F)c2)c(-c2ccnc(Nc3ccc(N4CCN(CCF)CC4)c(F)c3)n2)s1: 100 to 1000 nM
Cc1cc(Nc2nccc(-c3sc(C(C)C)nc3-c3ccc(F)c(NS(=O)(=O)c4c(F)cccc4F)c3)n2)ccn1: 100 to 1000 nM
CC(C)c1nc(-c2cc(F)cc(NS(=O)(=O)c3c(F)cccc3F)c2)c(-c2ccnc(Nc3ccc(N4CCOCC4)nc3)n2)s1: < 100 nM
CN(C)c1nc(-c2ccc(F)c(NS(=O)(=O)c3c(F)cccc3F)c2)c(-c2ccnc(Nc3ccc(N4CCOCC4)nc3)n2)s1: < 100 nM
CC(C)c1nc(-c2cccc(NS(=O)(=O)c3c(F)cccc3F)c2)c(-c2ccnc(Nc3ccc(N4CCN(CCO)CC4)nc3)n2)s1: < 100 nM

Please look up its IC50: CC(C)c1nc(-c2ccnc(NS(=O)(=O)c3c(F)cccc3F)c2)c(-c2ccnc(Nc3ccc(N4CCOCC4)nc3)n2)s1
< 100 nM

Bench note: what IC50 did CC(C)c1nc(-c2cccc(NS(=O)(=O)c3c(F)cccc3F)c2)c(-c2ccnc(Nc3ccc(N4CC[C@@H](O)C4)nc3)n2)s1 show?
< 100 nM

* * *

Quick reference: IC50 of the listed items.
# System: BT474 tumor cells
# ASSAY SUMMARY: Cell growth inhibition assay (CellTiter-Glo), BT474
# Type: cell-based, Human
# APPLIED CONDITIONS: Homo sapiens, BT-474, 72 h, 3 days incubation

Use these answered entries as a reference point.
CC(C)c1nc(-c2ccc(F)c(NS(=O)(=O)c3c(F)cccc3F)c2)c(-c2ccnc(Nc3ccc(N4CCC(C#N)CC4)nc3)n2)s1 [Example 24]: > 1 µM
CC(C)c1nc(-c2cccc(NS(=O)(=O)c3c(F)cccc3F)c2)c(-c2ccnc(Nc3ccc(N4CCCNCC4)nc3)n2)s1 [Example 82]: > 1 µM
O=S(=O)(Nc1cccc(-c2nc(N3CCOCC3)sc2-c2ccnc(Nc3ccc(N4CCOCC4)nc3)n2)c1Cl)c1c(F)cccc1F [Example 146]: > 1 µM
CC(C)c1nc(-c2cccc(NS(=O)(=O)c3ccccc3)c2)c(-c2ccnc(Nc3ccc(F)c(N4CCN(CCS(C)(=O)=O)CC4)c3)n2)s1 [Example 73]: > 1 µM

# get_value(readout='IC50', item= CCOc1ccc(Nc2nccc(-c3sc(N4CCCC4)nc3-c3cccc(NS(=O)(=O)c4c(F)cccc4F)c3)n2)cc1N1CCN(CCS(C)(=O)=O)CC1 [Example 109] )
0.1 to 1 µM

# lookup: IC50 of CC(C)(F)c1nc(-c2cccc(NS(=O)(=O)c3c(F)cccc3F)c2)c(-c2ccnc(Nc3ccc(N4CCN(CCF)CC4)c(F)c3)n2)s1 [Example 94]
> 1 µM

* * *

This section lists IC50 readings for EGFR (Homo sapiens, UniProt P00533).
Structures can show the parent of a compound that is named as a salt.

Which IC50 value belongs to Cc1cc(N2CCC(N3CCCCC3)CC2)ccc1Nc1nccc(-c2sc(C(C)C)nc2-c2cccc(NS(=O)(=O)c3c(F)cccc3F)c2)n1 ?
< 0.1 µM

Give its IC50 value. Item: CS(=O)(=O)c1cccc(Nc2nccc(-c3sc(N4CCOCC4)nc3-c3cccc(NS(=O)(=O)c4c(F)cccc4F)c3F)n2)c1
> 1 µM

What value of IC50 has been recorded for this entry: Cc1cc(Nc2nccc(-c3sc(C(C)(C)C)nc3-c3cccc(NS(=O)(=O)c4c(F)cccc4F)c3F)n2)ccn1
> 1 µM

Requested read-out: IC50. Entry: CC(C)c1nc(-c2cccc(NS(=O)(=O)c3ccccc3)c2)c(-c2ccnc(Nc3ccc(N4CCN(CCS(C)(=O)=O)CC4)c(F)c3F)n2)s1
> 1 µM

What does the record list as IC50 for O=S(=O)(Nc1cc(-c2nc(N3CCOCC3)sc2-c2ccnc(Nc3ccc4c(c3)OCCO4)n2)ccc1F)c1c(F)cccc1F ?
0.1 to 1 µM

Recorded IC50 for CC(C)c1nc(-c2cc(F)c(F)c(NS(=O)(=O)c3cccc(F)c3)c2)c(-c2ccnc(Nc3cnc(N4CCOCC4)c(F)c3)n2)s1 , please?
> 1 µM

Need IC50 of CC(C)c1nc(-c2cccc(NS(=O)(=O)Cc3ccccc3)c2)c(-c2ccnc(Nc3ccc(N4CCOCC4)c(F)c3)n2)s1 , thanks.
> 1 µM

Need IC50 of CC(C)c1nc(-c2cc(F)cc(NS(=O)(=O)c3c(F)cccc3F)c2)c(-c2ccnc(Nc3ccc(N4CCOCC4)nc3)n2)s1 , thanks.
0.1 to 1 µM

Sample CC(C)c1nc(-c2ccnc(NS(=O)(=O)c3c(F)cccc3F)c2)c(-c2ccnc(Nc3cnc(N4CCOCC4)c(F)c3)n2)s1 — what was its IC50?
> 1 µM

Fill in: IC50 of CC(C)c1nc(-c2cccc(NS(=O)(=O)c3cccs3)c2)c(-c2ccnc(Nc3ccc(N4CCOCC4)nc3)n2)s1 is ___
> 1 µM

For the molecule shown here, COc1cc(N2CCN(CCS(C)(=O)=O)CC2)c(C)cc1Nc1nccc(-c2sc(C3CCOCC3)nc2-c2cccc(NS(=O)(=O)c3c(F)cccc3F)c2F)n1 , give the reported IC50.
< 0.1 µM

What value of IC50 has been recorded for this entry: CC(C)c1nc(-c2cccc(NS(=O)(=O)c3c(F)cccc3F)c2F)c(-c2ccnc(Nc3ccc(N4CCOCC4)nc3)n2)s1
> 1 µM

Look up IC50 for this molecule: CC(C)(F)c1nc(-c2cccc(NS(=O)(=O)c3c(F)cccc3F)c2)c(-c2ccnc(Nc3ccc(N4CCN(CCF)CC4)c(F)c3)n2)s1
> 1 µM

GET /values?readout=IC50&item= COc1cc(N2CCN(CCS(C)(=O)=O)CC2)c(C)cc1Nc1nccc(-c2sc(C(C)C)nc2-c2cccc(NS(=O)(=O)c3ccco3)c2)n1
< 0.1 µM

# get_value(readout='IC50', item= COc1cc(N2CCN(CCS(C)(=O)=O)CC2)c(C)cc1Nc1nccc(-c2sc(C(C)C)nc2-c2cccc(NS(=O)(=O)c3cccs3)c2)n1 )
< 0.1 µM

Please report the recorded IC50 for CCc1nc(-c2cccc(NS(=O)(=O)c3ccccc3)c2)c(-c2ccnc(Nc3cc(OC)c(OC)c(OC)c3)n2)s1 .
> 1 µM

What does the record list as IC50 for CC(C)c1nc(-c2cccc(NS(=O)(=O)c3c(F)cccc3F)c2)c(-c2ccnc(Nc3ccc(OC4CCN(CCS(C)(=O)=O)CC4)c(F)c3)n2)s1 [Example 13, hydrochloride] ?
0.1 to 1 µM

Form field: reported IC50 of CC(C)c1nc(-c2cccc(NS(=O)(=O)c3c(F)cccc3F)c2)c(-c2ccnc(Nc3cccc(N4CCN(C)CC4)c3)n2)s1
< 0.1 µM

Item CC(C)c1nc(-c2cccc(NS(=O)(=O)c3ccccc3)c2)c(-c2ccnc(Nc3ccc(N4CCOCC4)cn3)n2)s1 has what recorded IC50?
> 1 µM

Please look up its IC50: COc1cc(N2CCN(CCS(C)(=O)=O)CC2)c(C)cc1Nc1nccc(-c2sc(C(C)C)nc2-c2cc(NS(=O)(=O)c3c(F)cccc3F)ccc2F)n1
0.1 to 1 µM
